TESTED_ON: TEL-KIT fusion gene transfected cells (Ba/F3)
Sequence (P10721 26-976 limits assumed, change not shown): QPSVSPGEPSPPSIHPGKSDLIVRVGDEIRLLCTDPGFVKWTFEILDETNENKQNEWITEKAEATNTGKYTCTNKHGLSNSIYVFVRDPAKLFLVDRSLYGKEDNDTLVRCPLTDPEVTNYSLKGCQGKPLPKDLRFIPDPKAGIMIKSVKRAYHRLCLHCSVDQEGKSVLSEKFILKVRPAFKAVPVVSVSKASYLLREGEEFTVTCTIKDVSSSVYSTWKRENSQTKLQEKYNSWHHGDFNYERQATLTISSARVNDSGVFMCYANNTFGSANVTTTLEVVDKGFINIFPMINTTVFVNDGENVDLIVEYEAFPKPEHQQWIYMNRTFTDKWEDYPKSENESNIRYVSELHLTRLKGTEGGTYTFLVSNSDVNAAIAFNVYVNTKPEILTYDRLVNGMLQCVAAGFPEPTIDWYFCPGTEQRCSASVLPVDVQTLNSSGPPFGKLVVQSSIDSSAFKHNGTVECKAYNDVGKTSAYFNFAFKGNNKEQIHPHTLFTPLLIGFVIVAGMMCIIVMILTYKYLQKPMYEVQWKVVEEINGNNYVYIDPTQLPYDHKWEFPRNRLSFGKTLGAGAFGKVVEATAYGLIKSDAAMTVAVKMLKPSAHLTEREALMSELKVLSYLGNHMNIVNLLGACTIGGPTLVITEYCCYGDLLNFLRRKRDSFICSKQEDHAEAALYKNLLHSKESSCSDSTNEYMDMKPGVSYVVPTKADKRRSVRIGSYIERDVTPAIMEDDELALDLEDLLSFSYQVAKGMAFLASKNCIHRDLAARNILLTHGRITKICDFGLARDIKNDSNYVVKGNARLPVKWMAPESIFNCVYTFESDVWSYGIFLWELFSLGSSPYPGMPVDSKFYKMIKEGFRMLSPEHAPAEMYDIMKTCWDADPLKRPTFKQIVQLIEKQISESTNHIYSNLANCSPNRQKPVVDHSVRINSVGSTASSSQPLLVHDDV
PROCEDURE_SUMMARY: Suppression of proliferation of TEL-KIT fusion gene transfected Ba/F3 cells;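 also: viable cells quantified via formazan from tetrazolium reduction, inhibition scaled with 0.1% DMSO control as 0% and medium-only blank as 100%, IC50 from two-parameter logistic fit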
CONDITION_LABEL: read-out: KIT/BaF3 proliferation inhibition (IC50); TEL-KIT expressing Ba/F3 cells, 72 hours, final concentration 0.1 to 10,000 nM
pIC50 by entry:
Hey, just a heads up that pIC50 is the negative log base 10 of the concentration in molar.

Field: example entries. Status: answers known.
In: I'd like to know its pIC50. The compound in question is `O=C(N[C@H]1CCCC[C@@H]1O)c1ccc(Cl)c(C#Cc2cncc(-c3ccccc3)c2)c1`
Out: 5.74

In: Query `Cc1ccc(C(=O)N[C@H]2CCCC[C@@H]2O)cc1N[C@@H](C)c1cncc(-c2ccccc2)c1` next
Out: 6.30

In: Query `O=C(Nc1cccc(CNc2cncc(-c3ncccn3)c2)c1)N[C@@H]1CCCC[C@@H]1O` next
Out: 6.42

In: Query `CCCc1ncc(C(=O)Nc2cc(C(=O)N[C@H]3CCCC[C@@H]3O)ccc2C)s1` next
Out: 6.18

In: Query `CCC[C@@H](CO)NC(=O)c1ccc(C)c(NC(=O)c2cncc(-c3ccccc3)c2)c1` next
Out: 6.48

***
In: I'd like to know its pIC50. The compound in question is `Cc1ccc(C(=O)N[C@H]2CCCC[C@@H]2O)cc1NCc1cnn(-c2ccccn2)c1`
Out: 6.60

In: Query `Cc1ccc(C(=O)N[C@H]2CCCC[C@@H]2O)cc1NC(=O)c1cncc(-c2ccccc2)c1` next
Out: 6.70

In: Query `Cc1ccc(C(=O)N[C@H]2CCCC[C@@H]2O)cc1C#Cc1cncc(-c2cccc(F)c2)n1` next
Out: 6.52

In: Query `Cc1ccc(C(=O)N[C@@H](CO)[C@@H](O)c2ccccc2)cc1CNc1cncc(-c2ccccn2)c1` next
Out: 5.00

In: Query `Cc1ccc(C(=O)N[C@H]2CCCC[C@@H]2O)cc1NCc1cncc(-c2cc(F)cc(F)c2)c1` next
Out: 5.05

In: Query `Cc1ccc(C(=O)N[C@H]2CCCC[C@@H]2O)cc1NCc1cncc(C#CC2(O)CC2)c1` next
Out: 5.72

In: Query `Cc1ccc(C(=O)N[C@H]2CCCC[C@@H]2O)cc1NC(=O)c1cnc(NC(C)C)s1` next
Out: 6.00

In: Query `Cc1ccc(C(=O)N[C@H]2CCCC[C@@H]2O)cc1NCc1cnc(NC2CC2)nc1` next
Out: 6.02
